B1: Hairpin Ribozyme (parent)
chain: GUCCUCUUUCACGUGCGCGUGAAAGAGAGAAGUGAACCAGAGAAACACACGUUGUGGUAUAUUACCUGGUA

- Variants of: B1
- Measurement description: self-cleavage, relative activity (ratio to wild type); higher = more cleavage; co-transcriptional
Quantity kind: self-cleavage

[
  {
    "Residue change": "C16G A49G",
    "Quantity kind": "self-cleavage",
    "Data value": 0.544
  },
  {
    "Residue change": "C3U G54A",
    "Quantity kind": "self-cleavage",
    "Data value": 0.251
  },
  {
    "Residue change": "U60G U62C",
    "Quantity kind": "self-cleavage",
    "Data value": 0.244
  },
  {
    "Residue change": "A36U C50A",
    "Quantity kind": "self-cleavage",
    "Data value": 0.242
  }
]

Req: Give recorded self-cleavage. U33G A61U
Resp: 0.0863

Req: Read off the recorded self-cleavage for G32U A39U
Resp: 0.125

Req: Fill in reported self-cleavage for this entry: G32A C65A
Resp: 0.0853

Req: Tell me self-cleavage reported for G1C A47C
Resp: 0.0859
